# Protocol: qHTS for Inhibitors of human tyrosyl-DNA phosphodiesterase 1 (TDP1): qHTS in cells in presence of CPT; note: % is set by controls: 0 for no effect and ±100 for the full control effect; nearly all actives have a fitted effect of over 55% in size
# Experimental Setup: chicken DT40 Tdp1-/-;hTDP1 cells + 20 nM CPT, ATP luminescence, 48 h; series mostly up to 46.2 µM
About 50,000 (12%) of roughly 420,000 compounds were called active. Another 26% or so got no clear call; they are omitted. For the sample, actives were picked, then their nearest neighbours and some compounds at random.
Observed Property: activity change, negative = growth inhibition

1. CC(=O)c1ccc(F)c(-c2cc(C)cc3c2OC(CNC(=O)Cc2c[nH]c4ccccc24)C3)c1 (configuration not stated): 11.9% [at 9.04 µM] (inactive)
2. COCc1c(C(=O)NC2CCCCC2)cnn1-c1nccc(-c2ccccc2OC)n1: 5.12% [at 9.04 µM] (inactive)
3. COC(C)C(C(=O)OCC1=CCN2CC[C@H](O)[C@@H]12)C(C)C (some centres not stated): -27.6% [at 9.04 µM] (inactive)

Suppose we examine the compound "COC(=O)c1c(OCc2ccc(F)cc2)cc(=O)n2c1CCN(Cc1ccc3cccnc3c1)CC2" ; what activity change, negative = growth inhibition value has been reported? 8.77% [at 9.04 µM] (inactive)
